experiment: Study .1: single dose study in healthy volunteers, pharmacokinetic parameters
Format: in vivo, human
protocol-conditions: human, plasma, oral, 2.5 mg, 2.5 mg single dose, Study .1, fasted; read-out: Cmax Median
quantity-kind: Cmax (nM)
Output spec: scalar in nM, unitless text.

Query: Give reported Cmax value for "OC[C@H]1O[C@@H](c2ccc(Cl)c(Cc3ccc(O[C@H]4CCOC4)cc3)c2)[C@H](O)[C@@H](O)[C@@H]1O"
Response: 55

---

experiment: Study .2: multiple rising dose trial in diabetic patients, once daily for 8 days, pharmacokinetic parameters
Type: in vivo, human
protocol-conditions: human, plasma, oral, 10 mg, 10 mg once daily, steady state, Study .2, fasted; read-out: tmax,ss g Mean
quantity-kind: Tmax (h)
Output spec: scalar in h, unitless text.

Query: Give reported Tmax value for OC[C@H]1O[C@@H](c2ccc(Cl)c(Cc3ccc(O[C@H]4CCOC4)cc3)c2)[C@H](O)[C@@H](O)[C@@H]1O [Compound (I.9)]
Response: 1.4

The measured values listed here are drawn from patent US20180289678A1.
